Where these numbers come from: patent US8962621B2

Please respond with reported melting point for every item in the list.
Structures can show the parent of a compound that is named as a salt.

Examples with answers:
>>> result("CCCN(C)C1(c2csc3ccccc23)CCCNC1 (centres unmarked) (as salt: hydrochloride)")
"193.2 to 195 °C"
>>> result("CN(C)CCC(c1cc2ccccc2s1)N1CCCC1 (centres unmarked) (as salt: hydrochloride)")
"255 to 257.2 °C"
>>> result("COc1ccc(C2(CCCN(C)Cc3ccccc3)CCCNC2)cc1OC (centres unmarked) (as salt: hydrochloride)")
"256.6 to 258.9 °C"

// for each compound below, give its melting point
1. CN(C)CCCC(c1ccc(Cl)c(Cl)c1)N1CCNCC1 (centres unmarked) (as salt: hydrochloride)
2. CCCN(C)C1(c2ccc(OC)c(OC)c2)CCCNC1 (centres unmarked) (as salt: hydrochloride)
3. CN(CCCC1(c2cc3ccccc3s2)CCCNC1)Cc1ccccc1 (centres unmarked) (as salt: hydrochloride)
4. CCCN(C)C1(c2cc3ccccc3s2)CCCNC1 (centres unmarked) (as salt: hydrochloride)
5. CN(CCCC1(c2csc3ccccc23)CCCNC1)Cc1ccccc1 (centres unmarked) (as salt: hydrochloride)
6. CN(CCCC1(c2ccc3c(c2)OCO3)CCCNC1)Cc1ccccc1 (centres unmarked) (as salt: hydrochloride)
7. COc1ccc2cc(C(CCN(C)C)N3CCCC3)ccc2c1Cl (centres unmarked) (as salt: hydrochloride)
8. COc1ccc(C(CCN(C)C)N2CCCC2)cc1 (centres unmarked) (as salt: hydrochloride)

1. 245.6 to 248.2 °C
2. 195.2 to 197.8 °C
3. 298.5 to 300 °C
4. 185.3 to 187 °C
5. 312 to 313.5 °C
6. 285.6 to 288.9 °C
7. 215.2 to 216.9 °C
8. 175.2 to 178.4 °C

// for each compound below, give its melting point
1. CN(CCC(c1csc2ccccc12)N1CCCC1)Cc1ccccc1 (centres unmarked) (as salt: hydrochloride)
2. CN(CCC(c1cc2ccccc2s1)N1CCCC1)Cc1ccccc1 (centres unmarked) (as salt: hydrochloride)
3. CN(C)CCCC(c1csc2ccccc12)N1CCNCC1 (centres unmarked) (as salt: hydrochloride)
4. CN(C)CCCC1(c2ccc(Cl)c(Cl)c2)CCCNC1 (centres unmarked) (as salt: hydrochloride)
5. CN(C)CCC(c1ccc(Cl)c(Cl)c1)N1CCNCC1 (centres unmarked) (as salt: hydrochloride)

1. 297 to 299.5 °C
2. 287.5 to 289.2 °C
3. 249.6 to 252.2 °C
4. 169.1 to 171.8 °C
5. 257.3 to 258.9 °C

// for each compound below, give its melting point
1. CN(C)CCC(c1csc2ccccc12)N1CCCC1 (centres unmarked) (as salt: hydrochloride)
2. CNCCC(c1csc2ccccc12)N1CCCC1 (centres unmarked) (as salt: hydrochloride)

["259.7 to 262.2 °C", "189.3 to 192 °C"]

// for each compound below, give its melting point
1. CCCN(C)C1(c2ccc3c(c2)OCO3)CCCNC1 (centres unmarked) (as salt: hydrochloride)
2. CNCCC(c1cc2ccccc2s1)N1CCCC1 (centres unmarked) (as salt: hydrochloride)

1. 189.3 to 192.4 °C
2. 175 to 176.8 °C

* * *

molecular target: DA Transporter (hDAT) (Homo sapiens, UniProt Q01959); assay: Inhibition of [3H]-DA reuptake in HEK 293 cells stably expressing hDAT; conditions: HEK293, read-out: DA Reuptake Inhibition
Sequence (Q01959 whole entry): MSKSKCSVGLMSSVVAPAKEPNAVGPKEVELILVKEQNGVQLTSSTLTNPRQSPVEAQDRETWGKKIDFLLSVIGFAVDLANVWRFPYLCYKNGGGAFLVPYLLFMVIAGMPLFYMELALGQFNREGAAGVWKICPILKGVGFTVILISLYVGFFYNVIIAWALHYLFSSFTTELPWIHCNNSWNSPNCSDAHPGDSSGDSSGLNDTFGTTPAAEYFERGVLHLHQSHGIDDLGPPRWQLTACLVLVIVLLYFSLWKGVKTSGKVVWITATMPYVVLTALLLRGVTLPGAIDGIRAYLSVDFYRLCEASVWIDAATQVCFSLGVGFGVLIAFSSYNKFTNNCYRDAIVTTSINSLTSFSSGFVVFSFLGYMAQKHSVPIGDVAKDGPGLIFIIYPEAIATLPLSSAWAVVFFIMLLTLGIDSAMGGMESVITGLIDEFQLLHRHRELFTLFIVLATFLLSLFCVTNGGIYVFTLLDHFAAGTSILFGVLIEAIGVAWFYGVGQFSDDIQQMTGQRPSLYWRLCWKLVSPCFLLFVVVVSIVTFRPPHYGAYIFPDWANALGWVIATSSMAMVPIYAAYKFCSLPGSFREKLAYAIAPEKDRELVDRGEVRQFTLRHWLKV
ASSAY_METRIC: inhibition at 10 µM (%)
One number for each entry, in %.

Examples with answers:
>>> recorded_number("CCN(CC)CCC(c1ccc(Cl)c(Cl)c1)N1CCCC1 (centres unmarked) [VI-1]")
101
>>> recorded_number("CN(C)CCC(c1ccc(Cl)c(Cl)c1)N1CCCC1 (centres unmarked) [VI-2]")
103
>>> recorded_number("Clc1ccc([C@]23CNC[C@H]2C3)cc1Cl [DOV-21947, reference compound]")
100

// for each molecule below, give its inhibition at 10 µM
1. CN(C)CCC(c1csc2ccccc12)N1CCCC1 (centres unmarked) [VI-13]
2. CN(C)CCC(c1cc2ccccc2s1)N1CCCC1 (centres unmarked) [VI-19]
3. COc1ccc2cc(C(CCN(C)C)N3CCCC3)ccc2c1Cl (centres unmarked) [VI-36]

[96.9, 75.6, 87.2]

// for each molecule below, give its inhibition at 10 µM
1. COc1ccc(C(CN(C)C)C2(O)CCCCC2)cc1 (centres unmarked) [Venlafaxine, reference compound]
2. CN(C)CCC(c1csc2ccccc12)N1CCCCC1 (centres unmarked)

1. 52.4
2. 80.2

* * *

assay: Acute toxicity experiment (single oral gavage); conditions: mouse, in vivo, po
ASSAY_METRIC: LD50 (mg/kg)
Answers are plain numbers, in mg/kg.

>>> recorded_number("CN(C)CCC(c1ccc(Cl)c(Cl)c1)N1CCCC1 (centres unmarked) [VI-2]")
950

Please examine the following record next.
Look up LD50 of CCN(CC)CCC(c1ccc(Cl)c(Cl)c1)N1CCCC1 (centres unmarked) [VI-1] and report it.
1050
